# assay procedure: Ratio of drug level in zebrafish brain to blood at 10 mg/kg, po administered via gavage measured 0.5 hrs post compound administration by LC-MS/MS analysis
# Assay type: ADME, organism-based, Danio rerio
property: Kp at 0.5 h
API note: the answer field is a bare number with no unit suffix.

q: Please indicate Kp at 0.5 h recorded for O=C(CC12CC3CC(CC(C3)C1)C2)Nc1cccc2nc(Cl)ccc12
a: 2.03

###

# assay procedure: Equilibrium solubility of the compound in DMSO after 16 hrs
# Format: physicochemical
property: solubility at 16 h (µM)
Report as a plain number; the unit µM is understood.

q: Please indicate solubility at 16 h recorded for O=C(CC12CC3CC(CC(C3)C1)C2)Nc1cccc2nc(Cl)ccc12
a: 15.6

###

# assay procedure: Antiproliferative activity against human TS15-88 cells after 24 to 72 hrs by MTS assay
# Assay type: functional, cell-based
# IC50 annotations
Report as a plain number; the unit µM is understood.

These solved cases illustrate the format of a correct answer.
{"structure smiles": "COC(=O)c1ccc(-c2ccc3c(NC(=O)CC45CC6CC(CC(C6)C4)C5)cccc3n2)cc1", "unit of measurement": "µM", "IC50": 35.6}
{"structure smiles": "O=C(CC12CC3CC(CC(C3)C1)C2)Nc1cccc2nc(Cl)ccc12", "unit of measurement": "µM", "IC50": 40}

Field: next compound
q: Please indicate IC50 recorded for O=C(CC12CC3CC(CC(C3)C1)C2)Nc1cccc2nc(-c3ccc(O)cc3)ccc12
a: 25.6

###

# viability at 10 µM annotations
# assay procedure: Cytotoxicity against HEK293 cells expressing human P2X7 receptor assessed as cell survival at 10 uM by MTT assay relative to control
# Type: cell-based
# experimental context: read-out: Survival
Report as a plain number; the unit % is understood.

These solved cases illustrate the format of a correct answer.
{"structure smiles": "O=C(CC12CC3CC(CC(C3)C1)C2)Nc1cccc2nc(-c3ccc(CO)cc3)ccc12", "unit of measurement": "%", "numeric readout": 95}
{"structure smiles": "O=C(CC1CCCCC1)Nc1cccc2nc(Cl)ccc12", "unit of measurement": "%", "numeric readout": 92}
{"structure smiles": "O=C(CC12CC3CC(CC(C3)C1)C2)Nc1cccc2nc(-c3ccc(O)cc3)ccc12", "unit of measurement": "%", "numeric readout": 94}
{"structure smiles": "O=C(CC12CC3CC(CC(C3)C1)C2)Nc1cccc2nc(-c3ccccc3)ccc12", "unit of measurement": "%", "numeric readout": 98}
{"structure smiles": "COC(=O)c1ccc(-c2ccc3c(NC(=O)CC45CC6CC(CC(C6)C4)C5)cccc3n2)cc1", "unit of measurement": "%", "numeric readout": 97}

q: Please indicate viability at 10 µM recorded for O=C(CC12CC3CC(CC(C3)C1)C2)Nc1cccc2nc(-c3ccc(C(=O)O)cc3)ccc12
a: 94

q: Please indicate viability at 10 µM recorded for O=C(CC12CC3CC(CC(C3)C1)C2)Nc1cccc2nc(-c3ccc([N+](=O)[O-])cc3)ccc12
a: 93

q: Please indicate viability at 10 µM recorded for Nc1ccc(-c2ccc3c(NC(=O)CC45CC6CC(CC(C6)C4)C5)cccc3n2)cc1
a: 98

q: Please indicate viability at 10 µM recorded for CN([C@@H](Cc1ccc(OS(=O)(=O)c2cccc3cnccc23)cc1)C(=O)N1CCN(c2ccccc2)CC1)S(=O)(=O)c1cccc2cnccc12
a: 93

q: Please indicate viability at 10 µM recorded for O=C(CC12CC3CC(CC(C3)C1)C2)Nc1cccc2nc(-c3ccc(Cl)cc3)ccc12
a: 98

q: Please indicate viability at 10 µM recorded for O=C(CC12CC3CC(CC(C3)C1)C2)Nc1cccc2nc(Cl)ccc12
a: 98

q: Please indicate viability at 10 µM recorded for COc1ccc(-c2ccc3c(NC(=O)CC45CC6CC(CC(C6)C4)C5)cccc3n2)cc1
a: 90
